The listing below reports IC50 for compounds tested on IRE1α (Homo sapiens (Human)).
Sequence (O75460 547-977): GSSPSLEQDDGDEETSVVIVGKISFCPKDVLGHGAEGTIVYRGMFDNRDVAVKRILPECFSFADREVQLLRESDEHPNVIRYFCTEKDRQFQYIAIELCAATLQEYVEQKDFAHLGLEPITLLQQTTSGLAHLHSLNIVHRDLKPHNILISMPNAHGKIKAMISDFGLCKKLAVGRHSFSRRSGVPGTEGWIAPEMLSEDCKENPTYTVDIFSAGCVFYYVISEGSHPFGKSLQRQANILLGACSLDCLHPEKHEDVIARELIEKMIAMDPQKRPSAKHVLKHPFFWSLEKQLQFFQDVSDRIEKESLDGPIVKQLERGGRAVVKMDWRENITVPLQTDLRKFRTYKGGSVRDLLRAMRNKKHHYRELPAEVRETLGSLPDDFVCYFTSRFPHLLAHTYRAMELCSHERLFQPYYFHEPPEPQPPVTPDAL
Give the value in nM but do not write nM after it.

Enter reported IC50 observed with IRE1α (Homo sapiens (Human)) for CCc1cc(-c2ccc(NS(=O)(=O)CC(F)(F)F)nc2OC)cc2cnc(N[C@H]3CC[C@H](N)CC3)nc12 [LBC-0000407]
7.5

Enter reported IC50 observed with IRE1α (Homo sapiens (Human)) for CCc1cc(-c2ccc(NS(=O)(=O)c3ccccc3Cl)nc2OC)cc2cnc(N[C@H]3CC[C@H](N)CC3)nc12 [LBC-0000405]
5.1

Reference source: patent US11840523B2
